Collected P.E. binding ELISA OD values appear next to each entry.
Biological target: T1, mouse IL-2Rβ (mouse) (UniProt P16297)
T1 sequence (looked up): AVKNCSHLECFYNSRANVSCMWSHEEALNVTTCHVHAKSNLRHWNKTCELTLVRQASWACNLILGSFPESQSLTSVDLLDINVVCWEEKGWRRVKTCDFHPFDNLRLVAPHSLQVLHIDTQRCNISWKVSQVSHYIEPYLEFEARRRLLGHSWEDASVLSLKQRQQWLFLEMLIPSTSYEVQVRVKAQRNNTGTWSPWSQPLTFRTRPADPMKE
Test: P.E. ELISA, coated protein
Kindly provide the numeric value in OD450 nm only, without the unit symbol.

binder	recorded endpoint	observed result
FJ1427_P035MP02H01 (VHH) VHH: QVQLVESGGGLVQPGGSLGLSCAASGFTFDNYAMSWVRQAPGKGLEWVSSITGAGRGTHYADSVKGRFTISRDNAKNTLYLQMNSLKPEDTAVYYCAKYSSSTYYPPTPARGTDYRGPGTQVTVSS	P.E. binding ELISA OD	0.051
FJ1427_P035MP02E03 (VHH) VHH: EVQLVESGGGSVQTGGSLRLSCVVSGSHFISDVMGWYRQVPGKQRELVADMADGGSVKYGDSVKGRFTILRDSVKNTVTLQMSSLNPEDTGVYYCKAGLWITGRHFDYWGQGTQVTVTS	P.E. binding ELISA OD	0.049

Note: attention shifts to another entry.
Task: State its P.E. binding ELISA OD for this binder: FJ1427 P035MP02E02 (VHH) VHH: EVQLVESGGGLVQTGGSLRLSCAASGSQFINDVMGWYRQVPGKQRELVADMDDTGSTKYADSVKGRFTILRDSVKNTAYLQMSNLKPEDTGVYYCKAGLWIKGRHSDYWGQGTQVTVSS
Result: 0.049

These data points were gathered from patent US20240409645A1.
